Task for the reader: assign each of the following sequences its reported shrunken log2 fold change.
- System: Escherichia coli TOP10
- protocol: shrunken log2 fold change of peptide-encoding DNA abundance (4.5 h post-induction vs induction); higher = less antimicrobial activity (less host growth inhibition)
- recorded conditions: time post-induction: 4.5 h; library: site-saturation at positions 5, 18, 19, 20
Give bare numbers.

residues: RRIRVRPPRLPRPRPRPRWKPRP
study system: Escherichia coli TOP10
observed value: 0.328
//
residues: RRIRCRPPRLPRPRPRPSWIPRP
study system: Escherichia coli TOP10
observed value: -0.732
//
residues: RRIRFRPPRLPRPRPRPPTFPRP
study system: Escherichia coli TOP10
observed value: -0.0402
//
residues: RRIRSRPPRLPRPRPRPSFMPRP
study system: Escherichia coli TOP10
observed value: -0.335
//
residues: RRIRVRPPRLPRPRPRPRKWPRP
study system: Escherichia coli TOP10
observed value: 0.474
//
residues: RRIRFRPPRLPRPRPRPRRHPRP
study system: Escherichia coli TOP10;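 note: peptides expressed intracellularly from a pBAD plasmid library in pooled LB shake-flask culture, induced with 0.3% L-arabinose, DNA abundance read by NGS, three biological replicates, DESeq2 with apeglm shrinkage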
observed value: 0.822

Batch: shrunken log2 fold change for all items listed.
1. RRIRLRPPRLPRPRPRPGQNPRP
2. RRIRFRPPRLPRPRPRPIADPRP

1: -0.18; 2: -0.0956
